Property: binding signal; scope: individual binders
assayed system: d-enCas12a (Acidaminococcus sp., UniProt U2UMQ6 1-1307, E174R;S542R;K548R;D908A;E993A;D1235A)
test summary: Spec-seq (native PAGE EMSA with sequencing of bound and unbound); 25 mM Tris-HCl pH 7.4, 150 mM KCl, 5 mM MgCl2, 10% glycerol, 1 mM DTT, 40 ng/uL salmon sperm DNA; 400 nM Cas12a, 480 nM crRNA, 50 nM library, 37 C 1 h; native PAGE at room temperature; high values mean tight binding;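 also: relative affinity from the bound to unbound sequence frequency ratio in Spec-seq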
protocol conditions: protein: recombinant
Supply the numeric figure in lnKA, leaving out any unit text.

# example entries with known answers
binder="GTGC (dsDNA) DNA 1: GCTATCTAGTGCTCAGTACGCACTGGTGCAGGAAACTTCTGGCAGGACCAGGTCATGAGATCGGAAGAGCACACGTCTGAACTCCAGTCA DNA 2: TGACTGGAGTTCAGACGTGTGCTCTTCCGATCTCATGACCTGGTCCTGCCAGAAGTTTCCTGCACCAGTGCGTACTGAGCACTAGATAGC RNA: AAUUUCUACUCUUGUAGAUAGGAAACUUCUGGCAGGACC" readout_label="binding signal" readout_value=-5.24
binder="GGTC (dsDNA) DNA 1: GCTATCTAGTGCTCAGTACGCACTGGGTCAGGAAACTTCTGGCAGGACCAGGTCATGAGATCGGAAGAGCACACGTCTGAACTCCAGTCA DNA 2: TGACTGGAGTTCAGACGTGTGCTCTTCCGATCTCATGACCTGGTCCTGCCAGAAGTTTCCTGACCCAGTGCGTACTGAGCACTAGATAGC RNA: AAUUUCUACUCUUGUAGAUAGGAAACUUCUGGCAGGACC" readout_label="binding signal" readout_value=-3.44

Lab note: TATT (dsDNA) DNA 1: GCTATCTAGTGCTCAGTACGCACTGTATTAGGAAACTTCTGGCAGGACCAGGTCATGAGATCGGAAGAGCACACGTCTGAACTCCAGTCA DNA 2: TGACTGGAGTTCAGACGTGTGCTCTTCCGATCTCATGACCTGGTCCTGCCAGAAGTTTCCTAATACAGTGCGTACTGAGCACTAGATAGC RNA: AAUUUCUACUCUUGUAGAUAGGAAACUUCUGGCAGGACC gave binding signal of -3.27
